B1: LINE1-mini (parent)
chain: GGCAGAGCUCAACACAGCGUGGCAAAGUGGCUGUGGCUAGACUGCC

variants of: B1; experiment: self-cleavage, relative activity (ratio to wild type); higher = more cleavage; in vitro, sequencing; the parent is a self-cleaving ribozyme
Experimental endpoint: self-cleavage
Field format: numeric only.

Example results:
Q) # input variant: C8A U32G ; wanted: its self-cleavage
A) 0.45

Q) # input variant: C10G C46G ; wanted: its self-cleavage
A) 0.05

Q) # input variant: A4U A16C ; wanted: its self-cleavage
A) 0.19

Q) # input variant: C23A G44A ; wanted: its self-cleavage
A) 0.61

More entries:
Q) # input variant: C13A U38G ; wanted: its self-cleavage
A) 0.03

Q) # input variant: C23U A25C ; wanted: its self-cleavage
A) 0.86

Q) # input variant: A39G U43C ; wanted: its self-cleavage
A) 0.04

Q) # input variant: G5C U38C ; wanted: its self-cleavage
A) 0.05

Q) # input variant: A12U C46G ; wanted: its self-cleavage
A) 0.45
